# EXPERIMENTAL_SYSTEM: PI3Kγ (Homo sapiens)
# Sequence (P48736 whole entry): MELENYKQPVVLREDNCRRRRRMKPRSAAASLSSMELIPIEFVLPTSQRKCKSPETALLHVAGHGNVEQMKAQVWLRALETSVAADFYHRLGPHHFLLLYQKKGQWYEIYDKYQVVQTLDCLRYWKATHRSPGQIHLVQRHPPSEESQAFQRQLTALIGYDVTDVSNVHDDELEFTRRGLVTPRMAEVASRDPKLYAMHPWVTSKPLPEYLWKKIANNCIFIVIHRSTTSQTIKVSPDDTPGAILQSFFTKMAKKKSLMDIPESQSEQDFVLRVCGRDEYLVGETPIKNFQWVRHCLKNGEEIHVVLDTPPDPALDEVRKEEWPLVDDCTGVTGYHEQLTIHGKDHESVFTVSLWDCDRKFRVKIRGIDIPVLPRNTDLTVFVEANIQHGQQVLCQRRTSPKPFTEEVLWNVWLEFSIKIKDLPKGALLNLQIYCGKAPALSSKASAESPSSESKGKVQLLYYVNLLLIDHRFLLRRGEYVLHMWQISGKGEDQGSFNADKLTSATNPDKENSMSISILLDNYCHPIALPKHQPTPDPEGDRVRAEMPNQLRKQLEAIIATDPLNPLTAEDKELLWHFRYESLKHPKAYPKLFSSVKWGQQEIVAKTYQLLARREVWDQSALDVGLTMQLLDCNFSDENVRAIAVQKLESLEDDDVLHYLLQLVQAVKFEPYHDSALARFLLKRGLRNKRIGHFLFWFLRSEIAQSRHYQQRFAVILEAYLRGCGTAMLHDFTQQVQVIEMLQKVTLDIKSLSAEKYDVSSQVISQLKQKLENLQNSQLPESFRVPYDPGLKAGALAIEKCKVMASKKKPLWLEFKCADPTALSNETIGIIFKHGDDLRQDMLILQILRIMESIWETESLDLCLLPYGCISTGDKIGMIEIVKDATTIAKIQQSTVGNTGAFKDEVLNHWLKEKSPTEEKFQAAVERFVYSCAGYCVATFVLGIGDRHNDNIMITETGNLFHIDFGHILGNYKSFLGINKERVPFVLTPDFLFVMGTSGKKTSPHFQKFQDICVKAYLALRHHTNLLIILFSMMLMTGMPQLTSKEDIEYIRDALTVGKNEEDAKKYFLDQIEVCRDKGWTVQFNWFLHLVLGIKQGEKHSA
# METHOD_NOTES: Fluorescent determination of PI3Kinase enzyme activity (HTRF), PI3Kγ
# Type: biochemical
# RUN_PARAMETERS: 100 nM (underlined values: 300 nM)
As shown below, each of these molecules has a reported inhibition at 0.1 µM value.
PROPERTY: inhibition at 0.1 µM

> print(dat)
                                   molecule   experimental.system     reading
1  C[C@@H](c1cc2cccc(Cl)c2c(=O)n1-c1ccccc1)n1nc(-c2ccc(O)c(F)c2)c2c(N)ncnc21 [Example 14a]  PI3Kγ (Homo sapiens)  80 to 100%
2  C[C@@H](c1cc2cccc(F)c2c(=O)n1-c1ccccc1)n1nc(-c2ccc(O)c(F)c2)c2c(N)ncnc21 [Example 15a]  PI3Kγ (Homo sapiens)   40 to 60%
3  CC(c1cc2cccc(Cl)c2c(=O)n1-c1ccccc1)n1nc(-c2ccc(O)c(F)c2)c2c(N)ncnc21 (stereo not shown) [Example 14]  PI3Kγ (Homo sapiens)  80 to 100%
4  CC(C)Oc1ccc(-c2nn([C@H](C)c3cc4ccccc4c(=O)n3-c3ccccc3)c3ncnc(N)c23)cc1F [Example 5b]  PI3Kγ (Homo sapiens)    0 to 20%
5  COc1ccc(-c2nn([C@@H](C)c3cc4cccc(Cl)c4c(=O)n3-c3ccccc3)c3ncnc(N)c23)cc1NS(C)(=O)=O [Example 20a]  PI3Kγ (Homo sapiens)   20 to 40%
6  C[C@H](c1cc2cccc(F)c2c(=O)n1-c1ccccc1)n1nc(-c2ccc(O)c(F)c2)c2c(N)ncnc21 [Example 15b]  PI3Kγ (Homo sapiens)    0 to 20%
7  C[C@H](c1nc2cccc(F)c2c(=O)n1-c1ccccc1)n1nc(-c2ccc(O)c(F)c2)c2c(N)ncnc21 [Example 16b]  PI3Kγ (Homo sapiens)    0 to 20%

###

# EXPERIMENTAL_SYSTEM: PI3Kγ (Homo sapiens)
# METHOD_NOTES: Fluorescent determination of PI3Kinase enzyme activity (HTRF), PI3Kγ
# Type: biochemical
# RUN_PARAMETERS: 100 nM (underlined values: 300 nM)
PROPERTY: inhibition at 0.1 µM

> print(dat)
                                    compound              property    reading
 1  C[C@@H](c1cc2cccc(Cl)c2c(=O)n1-c1ccccc1)n1nc(-c2ccc(OC(F)F)c(F)c2)c2c(N)ncnc21 [Example 17a]  inhibition at 0.1 µM   0 to 20%
 2  CC(C)Oc1ccc(-c2nn(C(C)c3nc4ccc(F)cc4c(=O)n3-c3ccccc3)c3ncnc(N)c23)cc1F (centres unmarked)  inhibition at 0.1 µM  40 to 60%
 3  CC(C)Oc1ccc(-c2nn([C@H](C)c3nc4ccccc4c(=O)n3-c3ccccc3)c3ncnc(N)c23)cc1F  inhibition at 0.1 µM   0 to 20%
 4  COc1ccc(-c2nn(C(C)c3nc4ccccc4c(=O)n3-c3ccccc3)c3ncnc(N)c23)cc1NS(C)(=O)=O (centres unmarked)  inhibition at 0.1 µM  20 to 40%
 5  COc1ccc(-c2nn([C@@H](C)c3cc4ccccc4c(=O)n3-c3ccccc3)c3ncnc(N)c23)cc1NS(C)(=O)=O  inhibition at 0.1 µM  40 to 60%
 6  CC(c1nc2ccccc2c(=O)n1-c1ccccc1)n1nc(-c2ccc(O)c(F)c2)c2c(N)ncnc21 (centres unmarked)  inhibition at 0.1 µM   0 to 20%
 7  Cc1n[nH]c2cc(-c3nn([C@H](C)c4cc5cccc(Cl)c5c(=O)n4-c4ccccc4)c4ncnc(N)c34)ccc12 [Example 21b]  inhibition at 0.1 µM  40 to 60%
 8  CC(C)Oc1ccc(-c2nn([C@@H](C)c3cc4ccccc4c(=O)n3-c3ccccc3)c3ncnc(N)c23)cc1F  inhibition at 0.1 µM  60 to 80%
 9  CC(C)Oc1ccc(-c2nn(C(C)c3cc4cccc(F)c4c(=O)n3-c3ccccc3)c3ncnc(N)c23)cc1F (centres unmarked)  inhibition at 0.1 µM   0 to 20%
10  COc1ccc(-c2nn(C(C)c3cc4ccccc4c(=O)n3-c3ccccc3)c3ncnc(N)c23)cc1NS(C)(=O)=O (centres unmarked)  inhibition at 0.1 µM  20 to 40%
11  COc1ccc(-c2nn([C@H](C)c3cc4ccccc4c(=O)n3-c3ccccc3)c3ncnc(N)c23)cc1NS(C)(=O)=O  inhibition at 0.1 µM   0 to 20%
12  COc1ccc(-c2nn([C@H](C)c3cc4cccc(Cl)c4c(=O)n3-c3ccccc3)c3ncnc(N)c23)cc1NS(C)(=O)=O [Example 20b]  inhibition at 0.1 µM   0 to 20%
13  CC(C)Oc1ccc(-c2nn([C@@H](C)c3nc4ccccc4c(=O)n3-c3ccccc3)c3ncnc(N)c23)cc1F  inhibition at 0.1 µM  40 to 60%
14  C[C@H](c1cc2cccc(Cl)c2c(=O)n1-c1ccccc1)n1nc(-c2ccc(O)c(F)c2)c2c(N)ncnc21 [Example 14b]  inhibition at 0.1 µM  20 to 40%

###

# EXPERIMENTAL_SYSTEM: PI3Kα (Homo sapiens)
# Sequence (P42336 whole entry): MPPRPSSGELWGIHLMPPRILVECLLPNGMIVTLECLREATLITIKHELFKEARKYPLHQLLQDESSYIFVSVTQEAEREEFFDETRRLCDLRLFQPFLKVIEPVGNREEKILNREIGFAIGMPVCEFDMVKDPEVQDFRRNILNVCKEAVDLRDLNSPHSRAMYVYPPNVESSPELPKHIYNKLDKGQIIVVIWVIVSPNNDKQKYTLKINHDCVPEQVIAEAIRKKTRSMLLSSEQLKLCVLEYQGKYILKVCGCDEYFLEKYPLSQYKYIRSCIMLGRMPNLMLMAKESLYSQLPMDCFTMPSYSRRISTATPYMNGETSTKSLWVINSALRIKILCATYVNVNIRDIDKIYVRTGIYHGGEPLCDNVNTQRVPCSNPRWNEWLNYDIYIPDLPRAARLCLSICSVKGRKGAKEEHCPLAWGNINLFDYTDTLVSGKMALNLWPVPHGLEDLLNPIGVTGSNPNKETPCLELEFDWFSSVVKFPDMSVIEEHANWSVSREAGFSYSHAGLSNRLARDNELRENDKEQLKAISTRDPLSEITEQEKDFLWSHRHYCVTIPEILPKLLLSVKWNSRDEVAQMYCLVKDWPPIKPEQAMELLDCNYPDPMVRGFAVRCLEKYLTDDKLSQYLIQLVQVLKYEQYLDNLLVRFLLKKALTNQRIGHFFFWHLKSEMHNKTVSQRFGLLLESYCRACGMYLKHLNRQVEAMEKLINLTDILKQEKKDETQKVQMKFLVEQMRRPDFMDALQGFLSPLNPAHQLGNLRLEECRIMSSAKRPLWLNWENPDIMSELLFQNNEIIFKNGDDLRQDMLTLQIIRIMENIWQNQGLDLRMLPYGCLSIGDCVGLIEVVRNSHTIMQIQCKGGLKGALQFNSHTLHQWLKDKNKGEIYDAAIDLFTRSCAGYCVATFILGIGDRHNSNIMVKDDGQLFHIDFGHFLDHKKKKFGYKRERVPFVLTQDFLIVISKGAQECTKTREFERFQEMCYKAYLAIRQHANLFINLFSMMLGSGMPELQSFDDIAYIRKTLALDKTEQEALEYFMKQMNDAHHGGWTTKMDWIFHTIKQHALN
# Sequence (P27986 whole entry partner): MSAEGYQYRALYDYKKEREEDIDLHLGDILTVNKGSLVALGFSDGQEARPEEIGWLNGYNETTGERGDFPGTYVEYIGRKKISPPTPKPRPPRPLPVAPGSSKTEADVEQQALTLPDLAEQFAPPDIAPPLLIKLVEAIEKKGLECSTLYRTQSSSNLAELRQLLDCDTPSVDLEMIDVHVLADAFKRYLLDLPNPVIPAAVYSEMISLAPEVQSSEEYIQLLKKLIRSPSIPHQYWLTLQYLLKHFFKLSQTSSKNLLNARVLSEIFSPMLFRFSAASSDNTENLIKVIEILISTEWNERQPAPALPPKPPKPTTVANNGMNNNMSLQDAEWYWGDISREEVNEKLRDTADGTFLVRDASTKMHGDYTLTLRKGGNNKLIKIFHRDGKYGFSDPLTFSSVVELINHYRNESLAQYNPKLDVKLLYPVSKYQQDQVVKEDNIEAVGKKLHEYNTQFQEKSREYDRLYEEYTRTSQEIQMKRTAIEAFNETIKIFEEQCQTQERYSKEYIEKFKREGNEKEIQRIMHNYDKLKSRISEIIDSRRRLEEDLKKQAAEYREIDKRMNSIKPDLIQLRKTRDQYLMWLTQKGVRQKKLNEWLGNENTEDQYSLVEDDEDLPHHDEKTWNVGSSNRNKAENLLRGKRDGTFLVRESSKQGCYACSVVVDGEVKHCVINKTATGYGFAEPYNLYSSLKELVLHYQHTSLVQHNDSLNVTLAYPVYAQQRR
# METHOD_NOTES: Fluorescent determination of PI3Kinase enzyme activity (HTRF), PI3Kα
# Type: biochemical
PROPERTY: inhibition at 1 µM

> print(dat)
                                    molecule   experimental.system    reading
 1  CC(C)Oc1ccc(-c2nn(C(C)c3cc4cccc(Cl)c4c(=O)n3-c3ccccc3)c3ncnc(N)c23)cc1F (stereo not shown) [Example 1]  PI3Kα (Homo sapiens)   0 to 10%
 2  C[C@@H](c1cc2cccc(F)c2c(=O)n1-c1ccccc1)n1nc(-c2ccc(O)c(F)c2)c2c(N)ncnc21 [Example 15a]  PI3Kα (Homo sapiens)   0 to 10%
 3  CC(c1cc2cccc(Cl)c2c(=O)n1-c1ccccc1)n1nc(-c2ccc(OC(F)F)c(F)c2)c2c(N)ncnc21 (stereo not shown) [Example 17]  PI3Kα (Homo sapiens)  20 to 40%
 4  CC(c1cc2ccccc2c(=O)n1-c1ccccc1)n1nc(-c2ccc(O)c(F)c2)c2c(N)ncnc21 (stereo not shown) [Example 7]  PI3Kα (Homo sapiens)  10 to 20%
 5  C[C@@H](c1nc2cccc(F)c2c(=O)n1-c1ccccc1)n1nc(-c2ccc(O)c(F)c2)c2c(N)ncnc21 [Example 16a]  PI3Kα (Homo sapiens)   0 to 10%
 6  C[C@@H](c1cc2ccccc2c(=O)n1-c1ccccc1)n1nc(-c2ccc(O)c(F)c2)c2c(N)ncnc21 [Example 7a]  PI3Kα (Homo sapiens)   0 to 10%
 7  COc1ccc(-c2nn(C(C)c3cc4ccccc4c(=O)n3-c3ccccc3)c3ncnc(N)c23)cc1NS(C)(=O)=O (stereo not shown) [Example 9]  PI3Kα (Homo sapiens)  20 to 40%
 8  Cc1n[nH]c2cc(-c3nn(C(C)c4cc5cccc(Cl)c5c(=O)n4-c4ccccc4)c4ncnc(N)c34)ccc12 (stereo not shown) [Example 21]  PI3Kα (Homo sapiens)  20 to 40%
 9  CC(C)Oc1ccc(-c2nn([C@@H](C)c3cc4ccccc4c(=O)n3-c3ccccc3)c3ncnc(N)c23)cc1F [Example 5a]  PI3Kα (Homo sapiens)   0 to 10%
10  COc1ccc(-c2nn([C@H](C)c3cc4cccc(Cl)c4c(=O)n3-c3ccccc3)c3ncnc(N)c23)cc1NS(C)(=O)=O [Example 20b]  PI3Kα (Homo sapiens)   0 to 10%
11  C[C@@H](c1cc2cccc(Cl)c2c(=O)n1-c1ccccc1)n1nc(-c2ccc(O)c(F)c2)c2c(N)ncnc21 [Example 14a]  PI3Kα (Homo sapiens)   0 to 10%
12  Cc1n[nH]c2cc(-c3nn([C@@H](C)c4cc5cccc(Cl)c5c(=O)n4-c4ccccc4)c4ncnc(N)c34)ccc12 [Example 21a]  PI3Kα (Homo sapiens)   0 to 10%
13  COc1ccc(-c2nn(C(C)c3nc4ccccc4c(=O)n3-c3ccccc3)c3ncnc(N)c23)cc1NS(C)(=O)=O (stereo not shown) [Example 12]  PI3Kα (Homo sapiens)   0 to 10%
14  C[C@@H](c1cc2cccc(Cl)c2c(=O)n1-c1ccccc1)n1nc(-c2ccc(OC(F)F)c(F)c2)c2c(N)ncnc21 [Example 17a]  PI3Kα (Homo sapiens)   0 to 10%
15  CC(c1cc2cccc(Cl)c2c(=O)n1-c1ccccc1)n1nc(-c2ccc(O)c(F)c2)c2c(N)ncnc21 (stereo not shown) [Example 14]  PI3Kα (Homo sapiens)  20 to 40%
16  C[C@H](c1cc2cccc(Cl)c2c(=O)n1-c1ccccc1)n1nc(-c2ccc(O)c(F)c2)c2c(N)ncnc21 [Example 14b]  PI3Kα (Homo sapiens)   0 to 10%
17  CC(C)Oc1ccc(-c2nn(C(C)c3nc4ccccc4c(=O)n3-c3ccccc3)c3ncnc(N)c23)cc1F (stereo not shown) [Example 6]  PI3Kα (Homo sapiens)   0 to 10%
18  CC(C)Oc1ccc(-c2nn(C(C)c3nc4ccc(F)cc4c(=O)n3-c3ccccc3)c3ncnc(N)c23)cc1F (stereo not shown) [Example 4]  PI3Kα (Homo sapiens)   0 to 10%
19  C[C@H](c1cc2cccc(F)c2c(=O)n1-c1ccccc1)n1nc(-c2ccc(O)c(F)c2)c2c(N)ncnc21 [Example 15b]  PI3Kα (Homo sapiens)   0 to 10%
